study_system: Voltage-gated potassium channel subunit beta-2 (Rattus norvegicus) (UniProt P62483)
Sequence (P62483 whole entry, looked up): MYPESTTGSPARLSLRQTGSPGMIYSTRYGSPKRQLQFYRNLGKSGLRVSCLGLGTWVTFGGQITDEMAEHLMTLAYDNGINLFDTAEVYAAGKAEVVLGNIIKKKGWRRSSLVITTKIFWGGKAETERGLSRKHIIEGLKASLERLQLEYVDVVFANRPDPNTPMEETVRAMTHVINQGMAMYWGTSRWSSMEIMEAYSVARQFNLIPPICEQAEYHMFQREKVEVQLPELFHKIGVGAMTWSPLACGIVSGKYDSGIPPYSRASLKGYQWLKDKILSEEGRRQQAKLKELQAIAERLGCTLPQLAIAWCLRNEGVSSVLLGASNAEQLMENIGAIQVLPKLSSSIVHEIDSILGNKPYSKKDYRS
test_protocol: inhibitors of rat Kvbeta2 reductase activity – biochemical, NADPH fluorescence, primary screen (AID 622);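 further: slope of raw intensity against log time taken from 70 to 1610 s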
stated_conditions: recombinant KvBeta, 4-cyanobenzaldehyde reduction, at 10 µM, stronger effect = higher value
fluorescence slope of -0.4 or higher: T. Under -0.4: F.

CCOCCCNS(=O)(=O)c1ccc2c(c1)oc(=O)n2CC(=O)OCC    F
CC(C)CNC(=O)C1C2C=CC(C2)C1C(=O)O (configuration not stated)    F
O=C(N1CCN(Cc2ccccc2)CC1)C12CC3CC(CC(C3)C1)C2    T
CCOC(=O)c1[nH]c(C)c(C(=O)N(C)C)c1C    F
CCC(=O)N1CCN(c2nc(-c3ccccc3)c3c(c2C#N)CCCC3)CC1    T
COc1cc(NC(=O)c2nccnc2C(=O)O)cc(OC)c1    F
Cc1onc(-c2ccccc2)c1C(=O)N1CCOCC1    T
C=CCSc1nc2c(c(=O)[nH]c(=O)n2C)n1CC    F

----------
NADPH fluorescence slope values by entry
study_system: Voltage-gated potassium channel subunit beta-2 (Rattus norvegicus)
test_protocol: enhancers of rat Kvbeta2 NADPH turnover – biochemical, NADPH fluorescence, primary screen (AID 623);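 further: fluorescence intensity change per second fitted from 20 to 320 s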
stated_conditions: Recombinant KvBeta, NADPH fluorescence decrease slope, 10 min; at 10 µM; stronger effect = lower value
measurement_type: NADPH fluorescence slope

CCN(CCO)C1CC(=O)N(c2ccccc2C)C1=O (centres undefined)    -3.6e-05
O=C(CN1CCN(c2nc(-c3ccc(Cl)cc3)cs2)CC1)NCc1ccco1    -3.9e-05
O=C(CSc1nc2ccccc2[nH]1)N1CCCCC1    -3.6e-05
COc1ccc(OC)c(N2Cc3cc(C)c(C)cc3C2)c1    -6.9e-05
COc1ccccc1NC(=O)CSc1nnc(-c2ccncc2)o1    1.9e-05
Cc1ccc(-c2nnc(SCC(=O)N3CC(C)CC(C)C3)o2)cc1C (centres undefined)    -4.3e-05
Cc1cc(C(=O)Cn2cncn2)c(C)n1CCc1ccc(F)cc1    -4e-05
Cc1[nH]nc(N=CC2=C(O)CC(C)(C)CC2=O)c1-c1ccc(Cl)cc1    1.2e-05
COc1ccc(Cl)cc1NC(=O)CSc1nncn1-c1cccnc1    1.5e-05
COc1ccc(-c2ccc(CCC(=O)O)n2NC(=O)c2cccs2)cc1    -3.6e-05
O=C(CSc1nnc(-c2cnccn2)n1Cc1ccco1)c1ccc(Cl)cc1    4.5e-06
O=C(NCCc1ccccc1)c1cc(-c2ccco2)on1    -5.1e-05
CCn1c(=O)cc(OCC(=O)Nc2cc(C)ccn2)c2ccccc21    -5.7e-06
NS(=O)(=O)c1ccc(NC(=O)N[C@@H](Cc2ccccc2)C(=O)O)cc1    -4.3e-05
Cc1cc(NC(=O)C2CCCC2)nc2c1c(=O)oc1ccccc12    -4.4e-05
Cc1csc(NC(=O)CCS(=O)(=O)c2ccc(Br)cc2)n1    1.8e-05
C(/CCc1ccccc1)=N\n1cnnc1    -5.3e-05
COCCCNS(=O)(=O)c1ccc2c(c1)CCN2C(C)=O    1.1e-05
N#Cc1cnc2sc3ccccc3n2c1=N    7.2e-06
COc1ccc(CC(=O)Nc2ccc(-c3nnc(-c4ccc(C)cc4)o3)cc2)cc1    -9.3e-06
O=C(CN(CC1CCCO1)S(=O)(=O)c1ccc(S(=O)(=O)NC2CC2)cc1)Nc1ccccc1 (centres undefined)    -4.7e-05
CC(=O)Nc1nc(-c2ccccc2)nc(C)c1C(C)=O    2e-05
CCN1C(=O)/C(=C/N(C)c2ccccc2)OC1=S    -5.3e-05
COCCn1c(C)c(C(=O)O)sc1=S    5e-06

----------
Reported inhibition by item:
test_protocol: blockers of RIG-like receptor reporter activation – cell-based, Sendai virus stimulus, luciferase, 10K MLSCN set, TLR/RLR signaling modifier project, primary screen (AID 602276);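 further: firefly luciferase from ISG56 promoter only with Renilla not read in this screen; 0% = Sendai virus plus DMSO and 100% = medium plus DMSO without virus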
stated_conditions: HEK293 RL24 IRF3 luciferase reporter, at 10 µM, stronger effect = higher value
measurement_type: inhibition (%)

O=c1c2ccccc2nc(SCc2nc(-c3ccccc3)no2)n1-c1ccc(F)cc1    13.8
COc1ccc(-c2cn3c(C)c(C(=O)Nc4cc(NC(C)=O)ccc4OC)sc3n2)cc1    42.7
CN(C)S(=O)(=O)c1ccc(S(=O)(=O)N(Cc2ccco2)Cc2ccccc2Cl)cc1    4.31
Cc1nc2c(=O)oc3ccccc3c2n1-c1ccccc1    12.7
O=C(CSc1nnc(SCc2ccc(Cl)cc2)s1)N1CCN(C(=O)c2ccco2)CC1    -1.92
CC(C)C(=O)Nc1cccc(NC(=O)c2cccnc2)c1    -7.88
CCOC(=O)n1c(SCC(=O)N(CC)CC)nc2ccccc21    0.265
O=C(NCc1ccco1)C1CCN(c2ccc(N3CCOCC3)nn2)CC1    -14.1
COc1ccccc1NC(=O)N(Cc1ccccc1)c1ccccn1    -7.55
O=S(=O)(NCC1CCCO1)c1cccc(C(F)(F)F)c1 (centres undefined)    1.55
CN(Cc1cccs1)CC(O)COCc1ccco1 (centres undefined)    11.5
Cc1cc(Cl)ccc1NC(=O)CSc1nnc(Cc2cccs2)n1Cc1ccco1    17.4
O=C(CSc1nc2ccccc2[nH]1)N1CCCCC1    -14.8
Cc1cc(NC(c2cccnc2)c2c(C)[nH]c3ccccc23)no1 (centres undefined)    17.8
CCSCc1nnc(SCC(=O)Nc2cccc(SC)c2)n1C    9.84
CCS(=O)(=O)Nc1ccc(C(=O)CC2(O)C(=O)Nc3ccccc32)cc1 (centres undefined)    14.3
COc1cccc(C(c2nnnn2Cc2ccccc2)N2CCN(C(=O)c3ccco3)CC2)c1OC (centres undefined)    8.65
Nc1nc2sc3c(c2c(=O)s1)CCCC3    -10.3
O=C(O)c1cccc(COCC(F)(F)C(F)F)c1    5.99
Cc1onc(-c2ccccc2Cl)c1C(=O)Nc1cccc(-c2cn3cccnc3n2)c1    7.13
O=C(CSc1ncn[nH]1)NC1CC2CCC1C2 (centres undefined)    2.17
CCCc1cc(C(=O)Nc2ccccc2C(=O)OC)no1    -14.6
CC(=O)NCc1cccc(CNC(C)=O)n1    12
COC(=O)C1C2C=CC3(CN(CC4CCCO4)C(=O)C13)O2 (centres undefined)    5.61

----------
Measured nuclei count, listed per entry.
test_protocol: endothelial E-selectin expression blockers – imaging, HUVEC, immunofluorescence, MLSMR starter and 10KST1 sets, primary screen (AID 487);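 further: 100% = median nuclei count of all wells on the same plate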
stated_conditions: HUVEC TNFalpha-induced E-selectin immunofluorescence imaging, at 2 µM; measured here: cell number, toxicity
measurement_type: nuclei count

O=C(Cc1c[nH]c2ccccc12)N1CCc2ccccc21    93.8%
O=C(CC1(O)C(=O)Nc2ccccc21)c1ccc2c(c1)OCO2 (configuration not stated)    110%
CC1CCc2nn(CC(=O)NCc3ccc(F)cc3)cc2C1 (configuration not stated)    119%
Cc1nc2c(-c3ccccc3)c(C)[nH]n2c(=O)c1Cl    84.2%
O=C(NCc1cccnc1)c1cccc(C(F)(F)F)c1    103%
FC(F)Oc1cccc2cccnc12    82.3%
C1=Nc2c(NCc3ccccc3)ncnc2Oc2ccccc21    112%
COc1ccc(OC)c(N2Cc3cc(C)c(C)cc3C2)c1    86.7%
O=C(NCC1CCCO1)c1ccc(N2CCCCC2)nc1 (configuration not stated)    107%
CCN(CC)S(=O)(=O)c1ccc(Cl)c(C(=O)OC)c1    123%
C1=CC2CC1CC2CN1CCN(c2ccccc2)CC1 (configuration not stated)    100%
COc1ccc(-c2nnc(SCc3nnc(-c4ccc(Cl)cc4)o3)n2-c2ccccc2)cc1    138%

----------
test_protocol: endothelial E-selectin expression blockers – imaging, HUVEC, immunofluorescence, MLSMR starter and 10KST1 sets, primary screen (AID 487);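 further: 100% = median nuclei count of all wells on the same plate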
stated_conditions: HUVEC TNFalpha-induced E-selectin immunofluorescence imaging, at 2 µM; measured here: cell number, toxicity
measurement_type: nuclei count (%)

CCOC(=O)N1CCC(NC(=O)c2ccc3c(c2)N(CC)CCS3)CC1    114
c1ccc(-c2nc3ccccc3nc2-c2ccccn2)nc1    118
CN1CCN(C(=O)C2(NC(=O)Nc3cccc(F)c3)CCCCC2)CC1    109
O=S(=O)(Nn1cnnc1)c1ccccc1Cl    81.7
CCCN(CCC)CCCNS(=O)(=O)c1ccc2c(c1)oc(=O)n2C    112
C#CCSc1nc(-c2cccs2)ccc1C#N    112

----------
study_system: Voltage-gated potassium channel subunit beta-2 (Rattus norvegicus)
test_protocol: inhibitors of rat Kvbeta2 reductase activity – biochemical, NADPH fluorescence, primary screen (AID 622);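 further: slope of raw intensity against log time taken from 70 to 1610 s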
stated_conditions: recombinant KvBeta, 4-cyanobenzaldehyde reduction, at 10 µM, stronger effect = higher value
measurement_type: fluorescence slope

Cc1c(N=C2SCC(=O)N2c2c(C)n(C)n(-c3ccccc3)c2=O)c(=O)n(-c2ccccc2)n1C    -0.482
O=C(CSc1nc2ccccc2[nH]1)N1CCCCC1    -0.435
COC(=O)C1=CN(C)C=C(C(=O)OC)C1c1ccc(O)c(OC)c1    -0.39
Cc1c(NC(=O)c2cnn3c2NC(c2ccco2)CC3C(F)(F)F)c(=O)n(-c2ccccc2)n1C (stereo not drawn)    -0.557
Cc1cc2c(c(=O)n1C)C(Cc1ccccc1)C(C#N)=C(N)O2 (stereo not drawn)    -0.322
CCOc1cc2oc(=O)c3c(c2cc1Cl)CCC3    -0.482
O=C(O)c1ccc(CSc2ncn[nH]2)cc1    -0.42
CCCCCCn1c(CN2CCCC(C)C2)nc2c1c(=O)n(C)c(=O)n2C (stereo not drawn)    -0.396
Cc1cc(NC(=O)C23CCC(C)(C(=O)O2)C3(C)C)no1 (stereo not drawn)    -0.612
CC(C)(C)NC(=O)CN(Cc1cccs1)C(=O)c1csnn1    -0.431
COc1cc(S(=O)(=O)NC2CCCCC2)ccc1Cl    -0.417
CC(=O)Nc1ccc2nc(-c3cccnc3)[nH]c2c1    -0.571
Fc1cccc(Nc2ncnc3c2cnn3-c2ccccc2)c1    -0.57
CCOc1ccccc1C1CC(c2ccc(Br)cc2)Nc2nc(N)nn21 (stereo not drawn)    -0.512
CC(=O)Nc1ccc(S(=O)(=O)N2CCN(C(=O)CCC3CCCC3)CC2)cc1    -0.581
O=c1c2[nH]c3cccc(Cl)c3c2ncn1CCN1CCCCC1    -0.618
CCCOC(=O)C1[C@H]2C(=O)N(CCCOC)C[C@]23C=C[C@H]1O3 (stereo partly drawn)    -0.605
Cc1nc2ccc(C(=O)O)cc2c2c1CC(C)S2 (stereo not drawn)    -0.38
O=C(CCCn1c(=O)[nH]c2ccsc2c1=O)N1CCN(c2ccccn2)CC1    -0.386
CC(=O)Nc1nc2c(c3c1c(=O)oc1ccccc13)CC(C)CC2 (stereo not drawn)    -0.457
COc1ccccc1-n1nnnc1SCc1cc2c(cc1Br)OCO2    -0.437
Cc1cc(C)nc(SCc2ccc3nonc3c2)n1    -0.282
COCCCN1C(=O)C(O)=C(C(C)=O)C1c1ccccn1 (stereo not drawn)    -0.399
